These entries and their values trace back to patent US12643867B2.

molecular target: recombinant DGKα (Rattus norvegicus, UniProt P51556); construct: expressed in transfected cells; host or cells: HEK293T (SILAC HEK293T for LC-MS); assay: Gel-based ATP acyl phosphate chemical proteomic assay; type: binding; settings: read-out: 95% confidence intervals for IC50 values, gel-based assay
Sequence (P51556 whole entry): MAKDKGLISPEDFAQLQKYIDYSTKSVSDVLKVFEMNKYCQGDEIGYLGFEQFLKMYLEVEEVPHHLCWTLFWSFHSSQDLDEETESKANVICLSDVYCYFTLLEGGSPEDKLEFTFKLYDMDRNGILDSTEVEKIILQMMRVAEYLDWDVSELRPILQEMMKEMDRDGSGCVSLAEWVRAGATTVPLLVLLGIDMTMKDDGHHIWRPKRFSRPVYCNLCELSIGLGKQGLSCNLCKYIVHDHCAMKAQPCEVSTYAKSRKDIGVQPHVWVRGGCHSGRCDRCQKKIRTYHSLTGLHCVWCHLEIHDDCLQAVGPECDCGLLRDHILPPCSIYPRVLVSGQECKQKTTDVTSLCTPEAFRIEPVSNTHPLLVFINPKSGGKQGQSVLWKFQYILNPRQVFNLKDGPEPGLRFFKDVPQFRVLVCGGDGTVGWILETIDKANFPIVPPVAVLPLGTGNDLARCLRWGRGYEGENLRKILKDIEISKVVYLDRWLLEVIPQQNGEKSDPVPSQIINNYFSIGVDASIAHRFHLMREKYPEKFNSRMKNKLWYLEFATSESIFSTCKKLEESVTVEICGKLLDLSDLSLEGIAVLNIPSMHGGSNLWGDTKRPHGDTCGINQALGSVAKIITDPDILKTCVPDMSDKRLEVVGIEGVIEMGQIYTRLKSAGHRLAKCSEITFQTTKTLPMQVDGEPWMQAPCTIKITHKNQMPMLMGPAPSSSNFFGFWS
Value Kind: IC50

Short answer on recombinant DGKα (Rattus norvegicus, UniProt P51556) for Cc1nc2sccn2c(=O)c1CCN1CCC(=C(c2ccc(F)cc2)c2ccc(F)cc2)CC1 , IC50: 17 to 192 µM

----------
molecular target: recombinant DGKα (Rattus norvegicus); construct: expressed in transfected cells; host or cells: HEK293T (SILAC HEK293T for LC-MS); assay: Gel-based ATP acyl phosphate chemical proteomic assay; type: binding; conditions: IC50, blockade of ATP probe labeling of DGKα (gel-based), 10 μM ATP probe, 30 min
Value Kind: IC50
Please answer using the number first and the unit second.

Just so you know, measured IC50 for Cc1nc2sccn2c(=O)c1CCN1CCC(=C(c2ccc(F)cc2)c2ccc(F)cc2)CC1 came out at 57 µM

----------
molecular target: Alpha (DGK alpha; only in reference sheet cells) (Rattus norvegicus); assay: DGK isoform % Activity screen; assay type: biochemical; conditions: read-out: 1 mM % Activity (section without isoform head; Alpha)
Sequence (P51556 whole entry, canonical isoform): as the sequence (P51556 whole entry) above
Mark fulfilled for activity at 1000 µM under 30%, not fulfilled if at or over.

Example entries and their recorded answers appear below.
[[record]]
smiles_data = "COc1ccc(C(=C2CCNCC2)c2ccc(OC)cc2)cc1"
assigned_label = "fulfilled"

[[record]]
smiles_data = "c1ccc(C(=C2CCNCC2)c2ccccc2)cc1"
assigned_label = "fulfilled"

[[record]]
smiles_data = "OCCCN1CCN(C(c2ccc(F)cc2)c2ccc(F)cc2)CC1"
assigned_label = "fulfilled"

[[record]]
smiles_data = "Fc1ccc(C(=C2CCN(Cc3ccc4ccccc4n3)CC2)c2ccc(F)cc2)cc1"
assigned_label = "not fulfilled"

[[record]]
smiles_data = "Fc1ccc(C(c2ccc(F)cc2)N2CCN(Cc3ccc4ccccc4n3)CC2)cc1"
assigned_label = "not fulfilled"

[[record]]
smiles_data = "Fc1ccc(C(=C2CCNCC2)c2ccc(F)cc2)cc1"
assigned_label = "fulfilled"

[[record]]
smiles_data = "Fc1ccc(C(c2ccc(F)cc2)C2CCNCC2)cc1"
assigned_label = "not fulfilled"


Below: the item to evaluate.
Q: Lab log: compare recorded activity at 1000 µM with 30%; is it strictly lower for CS(=O)(=O)N1CCC(=C(c2ccc(F)cc2)c2ccc(F)cc2)CC1 ?
A: not fulfilled

----------
molecular target: Zeta (DGK zeta) (Homo sapiens, UniProt Q13574); test: DGK isoform % Activity screen; type: biochemical; conditions: read-out: 1 mM % Activity, Zeta
Sequence (Q13574 whole entry, canonical isoform): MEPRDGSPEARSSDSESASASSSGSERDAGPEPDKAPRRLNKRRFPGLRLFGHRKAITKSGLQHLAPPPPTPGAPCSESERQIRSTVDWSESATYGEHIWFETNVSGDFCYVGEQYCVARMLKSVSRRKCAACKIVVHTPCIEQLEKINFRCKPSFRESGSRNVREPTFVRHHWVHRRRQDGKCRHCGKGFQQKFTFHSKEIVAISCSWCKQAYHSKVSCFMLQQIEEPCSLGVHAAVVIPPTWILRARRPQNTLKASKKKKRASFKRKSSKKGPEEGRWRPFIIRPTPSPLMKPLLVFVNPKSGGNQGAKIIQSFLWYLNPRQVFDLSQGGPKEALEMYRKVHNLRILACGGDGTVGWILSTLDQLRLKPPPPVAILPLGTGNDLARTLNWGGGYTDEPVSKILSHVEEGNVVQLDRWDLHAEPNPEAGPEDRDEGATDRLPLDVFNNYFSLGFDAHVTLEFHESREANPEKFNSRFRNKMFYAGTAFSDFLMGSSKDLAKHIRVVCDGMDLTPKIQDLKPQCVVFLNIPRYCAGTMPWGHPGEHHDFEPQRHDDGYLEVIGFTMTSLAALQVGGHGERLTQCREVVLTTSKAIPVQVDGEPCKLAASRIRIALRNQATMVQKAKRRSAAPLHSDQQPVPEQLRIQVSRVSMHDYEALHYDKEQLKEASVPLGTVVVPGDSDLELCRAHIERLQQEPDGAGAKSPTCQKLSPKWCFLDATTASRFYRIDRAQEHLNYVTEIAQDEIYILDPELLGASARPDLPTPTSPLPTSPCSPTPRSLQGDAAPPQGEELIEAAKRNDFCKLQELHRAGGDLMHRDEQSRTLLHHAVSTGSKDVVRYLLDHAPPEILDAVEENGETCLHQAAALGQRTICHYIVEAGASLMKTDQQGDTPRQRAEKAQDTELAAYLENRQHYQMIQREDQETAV
Value Kind: activity at 1000 µM
Please answer using the number first and the unit second.

[[record]]
compound = "OCCCN1CCN(C(c2ccc(F)cc2)c2ccc(F)cc2)CC1"
assay_value = "0%"

[[record]]
compound = "c1ccc(C(c2ccccc2)C2CCNCC2)cc1"
assay_value = "15%"

[[record]]
compound = "Fc1ccc(C(=C2CCN(Cc3ccc4ccccc4n3)CC2)c2ccc(F)cc2)cc1"
assay_value = "252%"


Short answer on Zeta (DGK zeta) (Homo sapiens, UniProt Q13574) for Fc1ccc(C(c2ccc(F)cc2)N2CCN(CCCN3CCCC3)CC2)cc1 , activity at 1000 µM: 0%

Short answer on Zeta (DGK zeta) (Homo sapiens, UniProt Q13574) for CS(=O)(=O)N1CCN(C(c2ccc(F)cc2)c2ccc(F)cc2)CC1 , activity at 1000 µM: 105%

Short answer on Zeta (DGK zeta) (Homo sapiens, UniProt Q13574) for CN1C2CCC1CC(OC(c1ccccc1)c1ccccc1)C2 (centres unmarked) , activity at 1000 µM: 21%

Short answer on Zeta (DGK zeta) (Homo sapiens, UniProt Q13574) for CN(C)CCOc1ccc(/C(=C(/CCCl)c2ccccc2)c2ccccc2)cc1 , activity at 1000 µM: 0%

Short answer on Zeta (DGK zeta) (Homo sapiens, UniProt Q13574) for OCCN1CCN(C(c2ccc(F)cc2)c2ccc(F)cc2)CC1 , activity at 1000 µM: 5%

Short answer on Zeta (DGK zeta) (Homo sapiens, UniProt Q13574) for Fc1ccc(C(=C2CCCN(Cc3ccccc3)C2)c2ccc(F)cc2)cc1 , activity at 1000 µM: 327%

Short answer on Zeta (DGK zeta) (Homo sapiens, UniProt Q13574) for Fc1ccc(C(c2ccc(F)cc2)N2CCN(Cc3ccc4ccccc4n3)CC2)cc1 , activity at 1000 µM: 193%

Short answer on Zeta (DGK zeta) (Homo sapiens, UniProt Q13574) for COc1ccc(C(=C2CCNCC2)c2ccc(OC)cc2)cc1 , activity at 1000 µM: 0%

----------
biological target: Zeta (DGK zeta) (Homo sapiens, UniProt Q13574); test: DGK isoform % Activity screen; format: biochemical
Value Kind: activity at 100 µM (%)
The figure you give is taken to be in %; do not add the unit.

Examples from the recorded data:
[[record]]
molecule = "c1ccc2c(c1)-c1ccccc1C2N1CCNCC1 [TH002]"
unit_symbol = "%"
assay_value = 98

[[record]]
molecule = "OC(c1ccc(F)cc1)(c1ccc(F)cc1)C1CCNCC1 [TH028]"
unit_symbol = "%"
assay_value = 125

[[record]]
molecule = "Fc1ccc(C(c2ccc(F)cc2)C2CCNCC2)cc1 [TH010]"
unit_symbol = "%"
assay_value = 96

[[record]]
molecule = "Fc1ccc(C(c2ccc(F)cc2)N2CCNCC2)cc1 [TH001]"
unit_symbol = "%"
assay_value = 102


Now consider the entry below.
Just so you know, measured activity at 100 µM for OCCN1CCN(C(c2ccc(F)cc2)c2ccc(F)cc2)CC1 [TH030] came out at 91
